System: HOP-92 NSCLC
assay_info: NCI tumour cell line growth inhibition, 48 h
For each entry below, report its TGI value.
One number for each entry, in µM.

C#CC(F)(F)[C@]1(O)CC[C@H]2[C@@H]3CCC4=CC(=O)CCC4=C3[C@@H](c3ccc(C(C)=O)cc3)C[C@@]21C :: 0.356
CSc1ccc2c3c(n(C[C@H](O)CO)c(=O)c2c1)-c1ccccc1C3=O :: 93.9
O=C(N/N=C/c1cc(Cl)cc(Cl)c1[O-])c1ccccc1O.O=C(N/N=C/c1cc(Cl)cc(Cl)c1[O-])c1ccccc1O.[Ni+2] :: 1.79

# lookup: Cc1cc(-c2nc3ccccc3s2)ccc1NC(=O)[C@H](C)N on HOP-92 NSCLC, TGI = 35.5

###

Tested on: UO-31 renal
assay_info: NCI tumour cell line growth inhibition, 48 h
quantity: TGI (µM)
Numbers only, in µM.

O=C(c1ccco1)c1c(C(F)(F)F)n([O-])c2ccccc2[n+]1=O :: 2.03

--- query ---
For record O=[Se](=O)c1ccccc1.O=[Se](=O)c1ccccc1.[Cu] the listed TGI is 32.5

###

Test system: OVCAR-4 ovarian
assay_info: NCI tumour cell line growth inhibition, 48 h
Assign 1 to entries whose TGI meets or exceeds 30 µM; assign -1 to the rest.

Exam item: # bool: TGI of CN1CCN(Cc2ccc(NC(=O)c3ccc(C#Cc4c(N)ncc5ccc(F)cc45)cc3)cc2C(F)(F)F)CC1 >= 30 µM
Marked response: -1

Exam item: # bool: TGI of CCCCOP1(=O)C=C(C)C(=C(Cl)Cl)C(C)=C1 (stereo not given) >= 30 µM
Marked response: 1

Exam item: # bool: TGI of Cc1cc(-c2nc3ccccc3s2)ccc1NC(=O)[C@H](C)N >= 30 µM
Marked response: -1

Exam item: # bool: TGI of CCOC(=O)/C=C/C(C(=O)/C=C/c1ccc(O)c(OC)c1)=C(O)\C=C\c1ccc(O)c(OC)c1 >= 30 µM
Marked response: -1

Exam item: # bool: TGI of COc1cc(/C=C2\CN(C)C/C(=C\c3cc(CN4CCCCC4)c(O)c(OC)c3)C2=O)cc(CN2CCCCC2)c1O >= 30 µM
Marked response: 1

Exam item: # bool: TGI of O=C(CCCCCCCCC(=O)N1C(=O)CC(=O)N(c2cccc(Cl)c2)C1=S)N1C(=O)CC(=O)N(c2cccc(Cl)c2)C1=S >= 30 µM
Marked response: 1

Exam item: # bool: TGI of COc1cccc(N(CN2CC=CC2=O)C(C)=O)c1 >= 30 µM
Marked response: 1

Exam item: # bool: TGI of O=C(NC1CCN(Cc2ccccc2)CC1)c1cc2nc(-c3ccc(Cl)s3)cc(C(F)(F)F)n2n1 >= 30 µM
Marked response: 1

###

For each entry below, report its TGI value.
Test system: UACC-62 melanoma
assay_info: NCI tumour cell line growth inhibition, 48 h
Give bare numbers, in µM.

Here are 3 compounds together with their reported answers.
C=CCC(N[C@H](CO)c1ccccc1)c1cn(C(=O)OCC)c2ccccc12 (some centres undefined) :: 30.6
COc1cc(-c2nc3sc4c(c3c(=O)[nH]2)CCCCCC4)cc(OC)c1OC :: 30.3
C=C1C(=O)O[C@H]2[C@H]1CC/C(COC(=O)CSCC(=O)OC/C1=C/CC[C@@]3(C)O[C@H]3[C@H]3OC(=O)C(=C)[C@@H]3CC1)=C\CC[C@@]1(C)O[C@@H]21 :: 3.95

Provide the reported TGI of each entry below, same order.
1. CN(C)CCSC(=Nc1ccccc1)N1CCCCC1
2. CCOC(=O)/C=C/C(C(=O)/C=C/c1ccc(O)c(OC)c1)=C(O)\C=C\c1ccc(O)c(OC)c1
3. C#CC(F)(F)[C@]1(O)CC[C@H]2[C@@H]3CCC4=CC(=O)CCC4=C3[C@@H](c3ccc(C(C)=O)cc3)C[C@@]21C
4. O=C(N/N=C/c1ccc([N+](=O)[O-])cc1)c1ccc2nc(-c3ccc(Cl)cc3)[nH]c2c1
5. Cc1sc(/N=C/c2c[nH]c3ccccc23)c(C#N)c1C
6. COc1cc(/C=C2\CCC(CN(C)C)C2=O)ccc1OC(=O)c1ccccc1 (centres undefined)

Marked response:
1: 30.4; 2: 3.76; 3: 33.8; 4: 14.9; 5: 78.8; 6: 30.9

Provide the reported TGI of each entry below, same order.
1. CCOC(=O)C(=Cc1ccc(C(=O)OC)cc1)C(=O)OCC
2. COc1cc(/C=C2\CN(C)C/C(=C\c3cc(CN4CCCCC4)c(O)c(OC)c3)C2=O)cc(CN2CCCCC2)c1O
3. COc1ccccc1/C=N\N=C(N/N=C/c1ccccc1OC)N/N=C/c1ccccc1OC

Marked response:
[5.47, 20.3, 7.71]

###

Tested on: NCI-H460 lung
assay_info: NCI tumour cell line growth inhibition, 48 h
quantity: TGI

COc1cc2cc(C(=O)N3CC(COS(C)(=O)=O)c4c3cc(N)c3ccccc43)[nH]c2c(OC)c1OC (stereo not given) :: > 100 µM
CC(=O)O[C@H]1CCC(C)=CCC[C@@]2(C)C(CC[C@@H]2[C@@H](C)/C=C/C(C)C)c2ccc(cc2C(=O)O)C1 (stereo not given in full) :: 10.8 µM
COC(=O)/C=C1\CCC(C)(C(=O)NS(=O)(=O)c2ccc(C)cc2)C1(C)C (stereo not given) :: > 100 µM
COc1ccc(C(=O)c2cc3c(OC)c(OC)c(OC)cc3[nH]2)cc1 :: > 100 µM
OC1(c2cc3ccccc3s2)CCCCC1 :: > 100 µM
C#CC(F)(F)[C@]1(O)CC[C@H]2[C@@H]3CCC4=CC(=O)CCC4=C3[C@@H](c3ccc(C(C)=O)cc3)C[C@@]21C :: > 68.2 µM
COc1ccc2c(c1)n([O-])c(C#N)c(N1CCN(c3ccc([N+](=O)[O-])cc3)CC1)[n+]2=O :: > 100 µM
CCOc1nc(-c2ccccc2)cc(-c2ccc(N3CCOCC3)cc2)c1C#N :: > 100 µM
O=Nc1ccc2ccccc2c1O :: 36.6 µM

--- query ---
For record O=C(CCl)N1c2ccccc2Sc2ccc3ccccc3c21 the listed TGI is 3.82 µM

###

For each entry below, report its TGI value.
System: HS 578T breast
assay_info: NCI tumour cell line growth inhibition, 48 h
One number for each entry, in µM.

COc1cc(/C=C2\CCC(CN(C)C)C2=O)ccc1OC(=O)c1ccccc1 (stereo not given) :: 74.8
Cc1ccc2c(O)c(O)cc(NC(C)CCCN)c2n1 (stereo not given) :: 49.4

Provide the reported TGI of each entry below, same order.
1. O=c1[nH]c(=O)n(Cc2ccccc2CO)cc1Sc1ccccc1
2. O=C(Nc1ccc(Cl)cc1)c1cc(-c2ccc(Cl)cc2)c2sc(=O)[nH]c2n1
3. CCOC(=O)/C=C/C(C(=O)/C=C/c1ccc(O)c(OC)c1)=C(O)\C=C\c1ccc(O)c(OC)c1

Marked response:
1: 60.6; 2: 21.5; 3: 41.7

###

Tested on: UACC-62 melanoma
assay_info: NCI tumour cell line growth inhibition, 48 h
For each entry below, report its GI50 value.

Here are 5 molecules together with their reported answers.
COc1ccc(-n2c3c(c4c(CN5CCOCC5)c(O)ccc42)CCc2ccccc2C3=O)cc1 :: > 100 µM
CN1CCN(Cc2ccc(NC(=O)c3ccc(C#Cc4c(N)ncc5ccc(F)cc45)cc3)cc2C(F)(F)F)CC1 :: 1 µM
COc1ccc2c(c1)C(c1ccccc1Cl)=Nc1c(n[nH]c1C)N2 :: 25 µM
COc1cccc2c1C(=O)c1c(O)c3c(c(O)c1C2=O)C[C@@](O)(C(=O)CO)C[C@@H]3OC1C[C@H](N)[C@H](O)[C@H](C)O1 (stereo partly drawn) :: 0.0346 µM
C=CC(=O)N[C@H]1CCOC[C@H]1Nc1ncc2cc(-c3c(Cl)c(OC)cc(OC)c3Cl)ccc2n1 :: 10.7 µM

Provide the reported GI50 of each entry below, same order.
1. CO[C@@H]1/C=C(C)/C=C/[C@@H](C)/C=C(\C)C(=O)OC(/C(C)=C/C=C(\C)CNC(=O)[C@H](CO)NC=O)[C@@H](C)/C=C/C=C/[C@H](OC)CC/C=C(C)/C=C/C1 (stereo partly drawn)
2. O=C(Cc1cccc(OC(F)(F)F)c1)Nc1ccc(CCCCc2nnc(NC(=O)Cc3ccccn3)s2)nn1
3. N#CCc1ncc(-c2ccc(C(F)(F)F)cc2)c(NC2CCCCCC2)n1

Marked response:
["< 0.005 µM", "19.9 µM", "> 10 µM"]

###

System: K-562 leukemia
assay_info: NCI tumour cell line growth inhibition, 48 h
quantity: TGI

Here are 5 compounds together with their reported answers.
Cc1ccc(-c2cc(C3=CC(=O)C=CC3=O)n(-c3ccc(S(N)(=O)=O)cc3)n2)cc1 :: > 100 µM
O=c1[nH]nc(-c2ccccc2)n1/N=C/c1c(O)ccc2ccccc12 :: > 100 µM
Cc1c2c[n+](C(C)C)ccc2c(C)c2c1[nH]c1ccccc12 :: 29 µM
Cc1ccc2c(c1)NC(=O)CC(c1ccccc1)=N2 :: 26.7 µM
Cc1cc(NS(=O)(=O)c2ccc(NC(=O)c3cccc4c(Nc5ccc(S(=O)(=O)N=C(N)N)cc5)c5ccccc5nc34)cc2)no1 :: > 100 µM

Provide the reported TGI of each entry below, same order.
1. CCOc1nc(-c2ccccc2)cc(-c2ccc(N3CCOCC3)cc2)c1C#N
2. COc1ccc(N=N/C(=N/NC(=O)c2ccccc2)c2ccc(N(CCC#N)CCC#N)cc2C)cc1
3. COc1ccc(C(=O)c2cc3c(OC)c(OC)c(OC)cc3[nH]2)cc1
4. C/C(=N\N=C(/[Se])N1CC2CCC(CC2)C1)c1ccccn1
5. C=CCSC1=N/C(=C\c2ccccc2)C(=O)N1CC=C

Marked response:
> 100 µM
> 100 µM
> 100 µM
0.575 µM
> 100 µM
